- System: human red blood cells (RBCs)
- TEST PROTOCOL: Hemolysis assay
- Type: cell-based
- ASSAY CONTEXT: red cells of human, 1 h, 64
Where a SMILES comes first, the peptide text is derived from it.
REPORTED ENDPOINT: Percentage of hemolysis at 64 μg/mL (%)

compound="CC[C@H](C)[C@H](NC(=O)[C@H](CCCCN)NC(=O)[C@H](CCCCN)NC(=O)[C@H](C)NC(=O)[C@@H](NC(=O)[C@H](CC(=O)O)NC(=O)[C@H](Cc1ccccc1)NC(=O)[C@H](CC(C)C)NC(=O)CN)[C@@H](C)CC)C(=O)N[C@@H](C)C(=O)N[C@@H](CCC(=O)O)C(=O)N[C@@H](CO)C(=O)N[C@@H](Cc1ccccc1)C(N)=O [Peptide I6A] (H-GLFDIAKKIAESF-NH2)" observed_measurement=0.1
compound="CC[C@H](C)[C@H](NC(=O)[C@H](C)NC(=O)[C@H](CC(=O)O)NC(=O)[C@H](Cc1ccccc1)NC(=O)[C@H](CC(C)C)NC(=O)CN)C(=O)N[C@@H](CCCCN)C(=O)N[C@@H](CCCCN)C(=O)N[C@H](C(=O)N[C@@H](C)C(=O)N[C@@H](CCC(=O)O)C(=O)N[C@@H](CO)C(=O)N[C@@H](Cc1ccccc1)C(N)=O)[C@@H](C)CC [Peptide I5A] (H-GLFDAIKKIAESF-NH2)" observed_measurement=0.1
compound="CC[C@H](C)[C@H](NC(=O)[C@H](CC(=O)O)NC(=O)[C@H](Cc1ccccc1)NC(=O)[C@H](CC(C)C)NC(=O)CN)C(=O)N[C@H](C(=O)N[C@@H](CCCCN)C(=O)N[C@@H](CCCCN)C(=O)N[C@@H](C)C(=O)N[C@@H](C)C(=O)N[C@@H](CCC(=O)O)C(=O)N[C@@H](CO)C(=O)N[C@@H](Cc1ccccc1)C(N)=O)[C@@H](C)CC [Peptide I9A] (H-GLFDIIKKAAESF-NH2)" observed_measurement=0.0
compound="CC[C@H](C)[C@H](NC(=O)[C@H](CCCCN)NC(=O)[C@H](CCCCN)NC(=O)[C@@H](NC(=O)[C@@H](NC(=O)[C@H](CC(=O)O)NC(=O)[C@H](C)NC(=O)[C@H](CC(C)C)NC(=O)CN)[C@@H](C)CC)[C@@H](C)CC)C(=O)N[C@@H](C)C(=O)N[C@@H](CCC(=O)O)C(=O)N[C@@H](CO)C(=O)N[C@@H](Cc1ccccc1)C(N)=O [Peptide F3A] (H-GLADIIKKIAESF-NH2)" observed_measurement=0.0
compound="CC[C@H](C)[C@H](NC(=O)[C@H](CCCCN)NC(=O)[C@H](CCCCN)NC(=O)[C@@H](NC(=O)[C@@H](NC(=O)[C@H](CC(=O)O)NC(=O)[C@H](Cc1ccccc1)NC(=O)[C@H](CC(C)C)NC(=O)CN)[C@@H](C)CC)[C@@H](C)CC)C(=O)N[C@@H](C)C(=O)N[C@@H](CCC(=O)O)C(=O)N[C@@H](CO)C(=O)N[C@@H](Cc1ccccc1)C(N)=O [aurein 1.2] (H-GLFDIIKKIAESF-NH2)" observed_measurement=4.5
compound="CC[C@H](C)[C@H](NC(=O)[C@H](CCCCN)NC(=O)[C@H](CCCCN)NC(=O)[C@@H](NC(=O)[C@@H](NC(=O)[C@H](CC(=O)O)NC(=O)[C@H](Cc1ccccc1)NC(=O)[C@H](CC(C)C)NC(=O)CN)[C@@H](C)CC)[C@@H](C)CC)C(=O)N[C@@H](C)C(=O)N[C@@H](CCC(=O)O)C(=O)N[C@@H](CO)C(=O)N[C@@H](C)C(N)=O [Peptide F13A] (H-GLFDIIKKIAESA-NH2)" observed_measurement=0.0
compound="CC[C@H](C)[C@H](NC(=O)[C@H](C)NC(=O)[C@H](CCCCN)NC(=O)[C@@H](NC(=O)[C@@H](NC(=O)[C@H](CC(=O)O)NC(=O)[C@H](Cc1ccccc1)NC(=O)[C@H](CC(C)C)NC(=O)CN)[C@@H](C)CC)[C@@H](C)CC)C(=O)N[C@@H](C)C(=O)N[C@@H](CCC(=O)O)C(=O)N[C@@H](CO)C(=O)N[C@@H](Cc1ccccc1)C(N)=O [Peptide K8A] (H-GLFDIIKAIAESF-NH2)" observed_measurement=16.1
compound="CC[C@H](C)[C@H](NC(=O)[C@H](C)NC(=O)[C@H](Cc1ccccc1)NC(=O)[C@H](CC(C)C)NC(=O)CN)C(=O)N[C@H](C(=O)N[C@@H](CCCCN)C(=O)N[C@@H](CCCCN)C(=O)N[C@H](C(=O)N[C@@H](C)C(=O)N[C@@H](CCC(=O)O)C(=O)N[C@@H](CO)C(=O)N[C@@H](Cc1ccccc1)C(N)=O)[C@@H](C)CC)[C@@H](C)CC [Peptide D4A] (H-GLFAIIKKIAESF-NH2)" observed_measurement=6.6
compound="CC[C@H](C)[C@H](NC(=O)[C@H](CCCCN)NC(=O)[C@H](C)NC(=O)[C@@H](NC(=O)[C@@H](NC(=O)[C@H](CC(=O)O)NC(=O)[C@H](Cc1ccccc1)NC(=O)[C@H](CC(C)C)NC(=O)CN)[C@@H](C)CC)[C@@H](C)CC)C(=O)N[C@@H](C)C(=O)N[C@@H](CCC(=O)O)C(=O)N[C@@H](CO)C(=O)N[C@@H](Cc1ccccc1)C(N)=O [Peptide K7A] (H-GLFDIIAKIAESF-NH2)" observed_measurement=0.7
compound="CC[C@H](C)[C@H](NC(=O)[C@H](CCCCN)NC(=O)[C@H](CCCCN)NC(=O)[C@@H](NC(=O)[C@@H](NC(=O)[C@H](CC(=O)O)NC(=O)[C@H](Cc1ccccc1)NC(=O)[C@H](CC(C)C)NC(=O)[C@H](C)N)[C@@H](C)CC)[C@@H](C)CC)C(=O)N[C@@H](C)C(=O)N[C@@H](CCC(=O)O)C(=O)N[C@@H](CO)C(=O)N[C@@H](Cc1ccccc1)C(N)=O [Peptide G1A] (H-ALFDIIKKIAESF-NH2)" observed_measurement=0.0
